- Assay: Thermal decomposition temperature (TG/DTA, 2% weight reduction)
- Type: physicochemical
- Experimental conditions: point of 2% weight reduction; 10° C./minute from 30° C. to 500° C.; nitrogen atmosphere
Attribute measured: Thermal decomposition temperature (°C)
The reply should be a number in °C, with the unit left off.

**Query** Please report the recorded Thermal decomposition temperature for O=C(Oc1cc2c3c(cccc3c1)C(=O)N(OS(=O)(=O)C(F)(F)F)C2=O)c1ccccc1 [Example A-11] .
**Result** 241

**Query** Please report the recorded Thermal decomposition temperature for O=C(Cc1ccccc1)c1ccc2c3c(cccc13)C(=O)N(OS(=O)(=O)C(F)(F)F)C2=O [Example A-4] .
**Result** 240

**Query** Please report the recorded Thermal decomposition temperature for O=C1c2cccc3c(C(F)(F)C(F)(F)C(F)(F)C(F)(F)F)ccc(c23)C(=O)N1OS(=O)(=O)C(F)(F)F [Example A-16] .
**Result** 239

**Query** Please report the recorded Thermal decomposition temperature for O=C1c2cccc3cccc(c23)C(=O)N1OS(=O)(=O)C(F)(F)F [A′-1, reference compound] .
**Result** 225

====

- Assay: Solvent solubility (butyl acetate, toluene or PGMEA)
- Assay type: physicochemical
- Experimental conditions: toluene, 25° C.
Attribute measured: Solvent solubility Toluene (wt %)
The reply should be a number in wt %, with the unit left off.

**Query** Please report the recorded Solvent solubility Toluene for "O=C(Oc1cc2c3c(cccc3c1)C(=O)N(OS(=O)(=O)c1c(F)c(F)c(F)c(F)c1F)C2=O)c1ccccc1" .
**Result** 18

**Query** Please report the recorded Solvent solubility Toluene for "O=C1c2cccc3c(OCC(F)(F)C(F)F)ccc(c23)C(=O)N1OS(=O)(=O)c1c(F)c(F)c(F)c(F)c1F" .
**Result** 10

**Query** Please report the recorded Solvent solubility Toluene for "O=C1c2cccc3c(Cl)ccc(c23)C(=O)N1OS(=O)(=O)c1c(F)c(F)c(F)c(F)c1F" .
**Result** 5

**Query** Please report the recorded Solvent solubility Toluene for "O=C1c2cccc3c(C(F)(F)C(F)(F)C(F)(F)C(F)(F)C(F)(F)C(F)(F)C(F)(F)C(F)(F)F)ccc(c23)C(=O)N1OS(=O)(=O)c1c(F)c(F)c(F)c(F)c1F" .
**Result** 28

**Query** Please report the recorded Solvent solubility Toluene for "CC(C)Oc1ccc2c3c(cccc13)C(=O)N(OS(=O)(=O)c1c(F)c(F)c(F)c(F)c1F)C2=O" .
**Result** 3.5

**Query** Please report the recorded Solvent solubility Toluene for "CC(C)(C)c1cc2c3c(cc(C(C)(C)C)cc3c1)C(=O)N(OS(=O)(=O)c1c(F)c(F)c(F)c(F)c1F)C2=O" .
**Result** 6

====

- Assay: Solvent solubility (butyl acetate, toluene or PGMEA)
- Assay type: physicochemical
- Experimental conditions: PGMEA, 25° C.
- Protocol: In a test tube, 0.1 g of the synthesized photoacid generator was placed, and an organic solvent (butyl acetate, toluene or PGMEA) was added thereto in 0.2 g portions under a condition where the temperature was adjusted to 25° C. until the photoacid generator was completely dissolved. In this connection, in the case where the photoacid generator was not completely dissolved even when 20 g of the solvent was added, the photoacid generator was evaluated as one that was not dissolved.
Attribute measured: Solvent solubility PGMEA (wt %)
The reply should be a number in wt %, with the unit left off.

**Query** Please report the recorded Solvent solubility PGMEA for "CC1(C)C2CC[C@@]1(CS(=O)(=O)ON1C(=O)c3cccc4cc(OC(=O)c5ccccc5)cc(c34)C1=O)C(=O)C2" .
**Result** 5

**Query** Please report the recorded Solvent solubility PGMEA for "CC(C)(C)Cc1cc2c3c(cc(CC(C)(C)C)cc3c1)C(=O)N(OS(=O)(=O)C(F)(F)F)C2=O" .
**Result** 14

**Query** Please report the recorded Solvent solubility PGMEA for "COc1cc2c3c(cccc3c1)C(=O)N(OS(=O)(=O)c1c(F)c(F)c(F)c(F)c1F)C2=O" .
**Result** 5

**Query** Please report the recorded Solvent solubility PGMEA for CCCCC(CC)C(=O)Oc1cc2c3c(cccc3c1)C(=O)N(OS(=O)(=O)CC13CCC(CC1=O)C3(C)C)C2=O (stereo not shown) .
**Result** 8

**Query** Please report the recorded Solvent solubility PGMEA for "O=C1c2cccc3c(Oc4cccc(C(F)(F)F)c4)ccc(c23)C(=O)N1OS(=O)(=O)C(F)(F)F" .
**Result** 11

**Query** Please report the recorded Solvent solubility PGMEA for "CC1(C)C2CC[C@@]1(CS(=O)(=O)ON1C(=O)c3cc(C45CC6CC(CC(C6)C4)C5)cc4cc(C56CC7CC(CC(C7)C5)C6)cc(c34)C1=O)C(=O)C2" .
**Result** 1.7

**Query** Please report the recorded Solvent solubility PGMEA for "O=C(Oc1cc2c3c(cccc3c1)C(=O)N(OS(=O)(=O)c1c(F)c(F)c(F)c(F)c1F)C2=O)c1c(F)c(F)c(F)c(F)c1F" .
**Result** 19

**Query** Please report the recorded Solvent solubility PGMEA for "O=C1c2cccc3c(Sc4ccccc4)ccc(c23)C(=O)N1OS(=O)(=O)C(F)(F)F" .
**Result** 5

**Query** Please report the recorded Solvent solubility PGMEA for CC1(C)C2CCC1(CS(=O)(=O)ON1C(=O)c3cccc4c(C(F)(F)C(F)(F)C(F)(F)C(F)(F)C(F)(F)C(F)(F)C(F)(F)C(F)(F)F)ccc(c34)C1=O)C(=O)C2 (stereo not shown) .
**Result** 9

**Query** Please report the recorded Solvent solubility PGMEA for O=C1c2cccc3cccc(c23)C(=O)N1OS(=O)(=O)C(F)(F)F [A′-1, reference compound] .
**Result** 2.4

**Query** Please report the recorded Solvent solubility PGMEA for CC(C)(C)c1cc2c3c(cc(C(C)(C)C)cc3c1)C(=O)N(OS(=O)(=O)CC13CCC(CC1=O)C3(C)C)C2=O (stereo not shown) .
**Result** 1.7

====

- Assay: Solvent solubility (butyl acetate, toluene or PGMEA)
- Assay type: physicochemical
- Experimental conditions: butyl acetate, 25° C.
- Protocol: In a test tube, 0.1 g of the synthesized photoacid generator was placed, and an organic solvent (butyl acetate, toluene or PGMEA) was added thereto in 0.2 g portions under a condition where the temperature was adjusted to 25° C. until the photoacid generator was completely dissolved. In this connection, in the case where the photoacid generator was not completely dissolved even when 20 g of the solvent was added, the photoacid generator was evaluated as one that was not dissolved.
Use true when the recorded Solvent solubility Butyl acetate is no lower than 4 wt %; use false when it is lower.

**Query** Say whether "O=C1c2cccc3c(Sc4ccccc4)ccc(c23)C(=O)N1OS(=O)(=O)C(F)(F)F" shows Solvent solubility Butyl acetate of 4 wt % or more.
**Result** true

**Query** Say whether CCCCC(CC)C(=O)Oc1cc2c3c(cccc3c1)C(=O)N(OS(=O)(=O)CC13CCC(CC1=O)C3(C)C)C2=O (centres unmarked) shows Solvent solubility Butyl acetate of 4 wt % or more.
**Result** true

**Query** Say whether CC1(C)C2CCC1(CS(=O)(=O)ON1C(=O)c3cccc4c(C(F)(F)C(F)(F)C(F)(F)C(F)(F)F)ccc(c34)C1=O)C(=O)C2 (centres unmarked) shows Solvent solubility Butyl acetate of 4 wt % or more.
**Result** true

**Query** Say whether "O=C(Cc1ccccc1)c1ccc2c3c(cccc13)C(=O)N(OS(=O)(=O)c1c(F)c(F)c(F)c(F)c1F)C2=O" shows Solvent solubility Butyl acetate of 4 wt % or more.
**Result** false

**Query** Say whether "O=C1c2cccc3c(Oc4cccc(C(F)(F)F)c4)ccc(c23)C(=O)N1OS(=O)(=O)C(F)(F)F" shows Solvent solubility Butyl acetate of 4 wt % or more.
**Result** true

**Query** Say whether "CC1(C)C2CC[C@@]1(CS(=O)(=O)ON1C(=O)c3cccc4cc(OC(=O)c5c(F)c(F)c(F)c(F)c5F)cc(c34)C1=O)C(=O)C2" shows Solvent solubility Butyl acetate of 4 wt % or more.
**Result** true

**Query** Say whether CCCOc1ccc2c3c(cccc13)C(=O)N(OS(=O)(=O)CC13CCC(CC1=O)C3(C)C)C2=O (centres unmarked) shows Solvent solubility Butyl acetate of 4 wt % or more.
**Result** false

**Query** Say whether "CCCC(=O)Oc1cc2c3c(cccc3c1)C(=O)N(OS(=O)(=O)C(F)(F)F)C2=O" shows Solvent solubility Butyl acetate of 4 wt % or more.
**Result** true

**Query** Say whether CCCCC(CC)C(=O)Oc1cc2c3c(cccc3c1)C(=O)N(OS(=O)(=O)C(F)(F)F)C2=O (centres unmarked) shows Solvent solubility Butyl acetate of 4 wt % or more.
**Result** true

**Query** Say whether "CCCC(=O)Oc1cc2c3c(cccc3c1)C(=O)N(OS(=O)(=O)c1c(F)c(F)c(F)c(F)c1F)C2=O" shows Solvent solubility Butyl acetate of 4 wt % or more.
**Result** true

**Query** Say whether CC1(C)C2CCC1(CS(=O)(=O)ON1C(=O)c3cccc4c(Oc5cccc(C(F)(F)F)c5)ccc(c34)C1=O)C(=O)C2 (centres unmarked) shows Solvent solubility Butyl acetate of 4 wt % or more.
**Result** false

**Query** Say whether CC1(C)C2CCC1(CS(=O)(=O)ON1C(=O)c3cccc4c(Br)ccc(c34)C1=O)C(=O)C2 (centres unmarked) shows Solvent solubility Butyl acetate of 4 wt % or more.
**Result** false

**Query** Say whether "O=C1c2cccc3c(Sc4ccccc4)ccc(c23)C(=O)N1OS(=O)(=O)c1c(F)c(F)c(F)c(F)c1F" shows Solvent solubility Butyl acetate of 4 wt % or more.
**Result** true

**Query** Say whether "O=C(Oc1cc2c3c(cccc3c1)C(=O)N(OS(=O)(=O)c1c(F)c(F)c(F)c(F)c1F)C2=O)c1ccccc1" shows Solvent solubility Butyl acetate of 4 wt % or more.
**Result** true
